The following compounds were reported with IC50 values on Fatty-acid amide hydrolase 1 (Homo sapiens) in different studies.
Sequence (O00519 whole entry): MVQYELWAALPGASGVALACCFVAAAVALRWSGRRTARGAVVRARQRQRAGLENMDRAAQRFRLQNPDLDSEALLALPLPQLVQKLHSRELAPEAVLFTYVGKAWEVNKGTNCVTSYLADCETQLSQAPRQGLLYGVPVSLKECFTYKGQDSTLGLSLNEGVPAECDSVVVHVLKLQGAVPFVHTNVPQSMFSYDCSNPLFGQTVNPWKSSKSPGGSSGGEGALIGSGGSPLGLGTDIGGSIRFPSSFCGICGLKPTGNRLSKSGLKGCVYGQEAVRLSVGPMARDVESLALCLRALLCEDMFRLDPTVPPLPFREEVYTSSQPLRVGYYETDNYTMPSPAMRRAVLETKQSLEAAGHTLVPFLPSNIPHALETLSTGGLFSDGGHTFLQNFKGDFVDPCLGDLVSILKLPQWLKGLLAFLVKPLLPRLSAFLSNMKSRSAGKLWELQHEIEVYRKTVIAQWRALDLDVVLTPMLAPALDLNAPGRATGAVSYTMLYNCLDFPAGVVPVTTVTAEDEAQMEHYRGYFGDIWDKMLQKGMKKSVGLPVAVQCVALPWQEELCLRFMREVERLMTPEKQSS
Readout kind: IC50 (nM)

Previously resolved entries follow.
> print(dat)
                                item.smiles  readout.kind  number
1   CC(C)(C)OC(=O)N1CCC(CCCC(=O)c2ncco2)CC1          IC50       2
2  N#Cc1ccncc1NC(=O)N1CCN(Cc2cccc(Oc3ccc(Cl)cc3)c2)CC1          IC50      17
3  CC/C=C\C/C=C\C/C=C\C/C=C\C/C=C\C/C=C\CCC(=O)NCC(=O)O          IC50    8600
4  O=C(Nc1cccnc1)N1C[C@@H]2CCN(Cc3cccc(Oc4ccc(Cl)cc4)c3)C[C@H]2C1          IC50   10000
5               O=C(CCCCCCc1ccccc1)C(F)(F)F          IC50    5000

A = CC(C)c1ccc(CN2CCC(CCCC(=O)c3ncco3)CC2)cc1
B = O=C(Nc1cccnc1)N1C[C@@H]2CN(Cc3cccc(Oc4ccc(Cl)cc4)c3)[C@@H]2C1
Field: entry with larger IC50 (options A / B ). // output: label of the selected item
B

P = O=C(Oc1ccc([N+](=O)[O-])cc1)N1CCN(S(=O)(=O)c2ccc(-c3ccc(Cl)c(Cl)c3)cc2)CC1
Q = O=C(Nc1cnccc1Cl)N1CC2(CN(Cc3cccc(Oc4ccc(Cl)cc4)c3)C2)C1
For P and Q , which recorded IC50 is lower? Write down the label of the entry you select.
Q
(Q: 18 nM, P: 382 nM)
